- Test Target: proliferating cell nuclear antigen (PCNA) (UniProt P12004 1-261)
- Sequence (P12004 whole entry): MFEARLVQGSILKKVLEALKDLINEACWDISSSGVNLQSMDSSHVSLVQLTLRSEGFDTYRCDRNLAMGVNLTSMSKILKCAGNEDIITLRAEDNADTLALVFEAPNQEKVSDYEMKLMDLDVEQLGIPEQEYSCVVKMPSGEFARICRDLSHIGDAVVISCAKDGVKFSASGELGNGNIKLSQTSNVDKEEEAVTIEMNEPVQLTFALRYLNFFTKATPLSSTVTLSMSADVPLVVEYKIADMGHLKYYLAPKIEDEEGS
- Test: ITC
Readout Kind: dH (kcal/mol)
# number only, unit kcal/mol dropped from output

Inquiry: Value lookup for dH; key = Ac-KRKKQTSMTDFYHSRKK-NH2 [p21_(SWAP) peptide]
Reply text: -17.2

Inquiry: Cool, now Ac-KKKKQTSMTDFYHSKKK-NH2 [p21_(All–K) peptide]
Reply text: -19.1

Inquiry: Cool, now Ac-RKRRQTSMTDFYHSKRR-NH2 [p21_(140–156) peptide (wild-type p21 PIP-degron with flanking regions)]
Reply text: -21.4

Inquiry: Cool, now Ac-QTSMTDFYHS-NH2 [p21_(core) peptide (isolated p21 core motif QTSMTDFYHS)]
Reply text: -21

Inquiry: Cool, now Ac-RRRRQTSMTDFYHSRRR-NH2 [p21_(All–R) peptide]
Reply text: -20
